The reported measurements were obtained from ChEMBL document CHEMBL1153760.

- system: Estrogen receptor (Homo sapiens, UniProt P03372)
- Sequence (P03372 whole entry): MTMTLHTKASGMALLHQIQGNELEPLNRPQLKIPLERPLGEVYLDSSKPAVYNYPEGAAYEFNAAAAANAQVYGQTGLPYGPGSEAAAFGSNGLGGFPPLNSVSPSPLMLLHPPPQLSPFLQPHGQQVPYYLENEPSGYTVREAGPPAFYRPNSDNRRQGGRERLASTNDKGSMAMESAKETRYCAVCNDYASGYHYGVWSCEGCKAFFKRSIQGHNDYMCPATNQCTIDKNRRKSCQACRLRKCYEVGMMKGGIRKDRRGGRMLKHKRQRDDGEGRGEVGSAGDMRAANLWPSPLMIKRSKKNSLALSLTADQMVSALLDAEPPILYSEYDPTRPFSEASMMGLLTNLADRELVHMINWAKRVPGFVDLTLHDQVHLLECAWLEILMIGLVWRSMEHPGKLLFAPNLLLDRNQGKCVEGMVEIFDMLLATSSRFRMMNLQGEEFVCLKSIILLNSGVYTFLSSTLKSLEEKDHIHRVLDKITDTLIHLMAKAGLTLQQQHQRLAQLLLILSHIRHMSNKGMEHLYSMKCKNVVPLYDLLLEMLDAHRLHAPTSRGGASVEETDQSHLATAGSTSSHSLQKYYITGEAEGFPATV
- test_protocol: Antagonist activity at estrogen receptor in human Ishikawa cells assessed as 17-beta-estradiol-induced alkaline phosphatase activity after 3 days by chemiluminescence assay
- Type: functional, cell-based
pIC50: −log10 of the molar value.
experimental_readout: pIC50

> print(dat)
                           molecular.string  experimental.readout  endpoint.result
1  CCN(CC)CCOc1ccc([C@@H]2Oc3cc(F)ccc3C3=C2c2ccc(O)cc2OCC3)cc1                 pIC50             6.91
2  Oc1ccc2c(c1)O[C@H](c1ccc(OCCCN3CCCCC3)cc1)C1=C2CCOc2cc(O)ccc21                 pIC50             6.38
3  Oc1ccc2c(c1)O[C@H](c1ccc(OCCN3CCCC3)cc1)C1=C2CCOc2cc(O)ccc21                 pIC50             8.00

P = CN(C)CCOc1ccc([C@@H]2Oc3cc(O)ccc3C3=C2c2ccc(O)cc2OCC3)cc1
Q = CN(C)CCOc1ccc([C@@H]2Oc3cc(O)ccc3C3=C2c2ccccc2OCC3)cc1
R = Oc1ccc2c(c1)O[C@H](c1ccc(OCCN3CCCCC3)cc1)C1=C2CCOc2cc(O)ccc21
Exercise: Ordering: ascending pIC50. Hello, could you send the labels back in the order asked? Thank you.
Key: P, Q, R
